# System: SK-MEL-2 melanoma
# Assay Text: NCI tumour cell line growth inhibition, 48 h
Readout: GI50

Solved cases below.
C(=N/Nc1ncnc2nc[nH]c12)/c1ccccn1
1.34 µM
C=C1C(=O)O[C@H]2[C@H]1CC/C(C=Nc1ccc(C(F)(F)F)cc1N)=C\CC[C@@]1(C)O[C@@H]21
11.9 µM
CCOCCc1c(O)nc(SC)[nH]c1=O
> 100 µM
CCOC(=O)C1=C(N)Oc2c(sc3c(C)cccc23)C1c1ccc(Cl)cc1 (centres undefined)
5.83 µM
O=C1Nc2ccccc2C1(c1ccc(O)c(F)c1)c1ccc(O)c(F)c1
11.4 µM
CC1(C)Cc2cccc(OCC(O)CN3CCN(c4ccc(F)cc4)CC3)c2O1 (centres undefined)
27 µM
Nc1ncnc2c1c(-c1cccc(OCc3ccccc3)c1)cn2C1CC(CN2CCCC2)C1 (centres undefined)
1.66 µM
Cn1cc(C2=C(c3c4n(c5ccccc35)CC(CN)C4)C(=O)NC2=O)c2ccccc21 (centres undefined)
1.69 µM

Quote GI50 reported for CCCN(CCC)c1ccc(C=O)cc1 please.
98.2 µM

---

Each entry below carries its reported TGI.
# System: HL-60(TB) leukemia
# Assay Text: NCI tumour cell line growth inhibition, 48 h

N=C(N)c1ccc(-c2ccc(-c3cc(Cl)cc(Cl)c3)s2)cc1
2.8 µM

Quote TGI reported for CN(C)CCCNC(=O)c1cc(NC(=O)CCNC(=O)c2ccc3c(c2)C(=O)c2ccccc2C3=O)cn1C please.
> 100 µM

Quote TGI reported for O=C(Nc1ccc(Cl)c(Cl)c1)C(=O)Nn1c(=S)[nH]c2ccccc2c1=O please.
> 100 µM

Quote TGI reported for COc1ccc(OC)c(C2CCCc3c2cnc2nc(N)nc(N)c32)c1 (stereo unspecified) please.
> 100 µM

Quote TGI reported for O=C(CSc1nc2ccc([N+](=O)[O-])cc2[nH]1)Nc1cccc(Cl)c1 please.
12.2 µM

Quote TGI reported for CC(C)=CCC[C@](C)(O)[C@H]1CC[C@]2(C)[C@@H]1[C@H](O)C[C@@H]1[C@@]3(C)CC[C@H](O[C@@H]4O[C@H](CO)[C@@H](O)[C@H](O)[C@H]4O)C(C)(C)[C@@H]3CC[C@]12C please.
45.8 µM

---

# Tested on: SF-268 CNS
# Assay Text: NCI tumour cell line growth inhibition, 48 h; in the data active means GI50 below about 0.43 µM; inactive means the rest
Write down one outcome, taken from YES (active), NO (inactive)

Reference set (4 entries):
C(=N/Nc1ncnc2nc[nH]c12)/c1ccccn1
YES
NC(=O)c1nnn(Cc2cc(Cl)c(C(=O)c3ccc(Cl)cc3)c(Cl)c2)c1N
NO
O=C(/C=C/c1ccccn1)c1ccccc1O
NO
Cc1ccc(Cl)cc1Nc1nc(C(F)(F)F)ccc1C(=O)N/N=C/c1c(Cl)cccc1Cl
NO

State the result this test recorded for C=C1C(=O)O[C@H]2[C@H]1CC/C(C=Nc1ccc(C(F)(F)F)cc1N)=C\CC[C@@]1(C)O[C@@H]21 .
NO

---

# Tested on: MCF7 breast
# Assay Text: NCI tumour cell line growth inhibition, 48 h
Readout: TGI

O=C(CCCCC(=O)N/N=C\c1ccccc1Cl)N/N=C\c1ccccc1Cl
> 100 µM

Quote TGI reported for CCOC(=O)C1=C(OS(=O)(=O)C(F)(F)F)CCCC1 please.
> 100 µM

Quote TGI reported for Fc1ccc(CNc2c3ccccc3nc3ccccc23)cc1 please.
4.97 µM

Quote TGI reported for O=C(N/N=C/c1coc2ccc(Cl)cc2c1=O)c1ccncc1 please.
> 100 µM

Quote TGI reported for COc1ccc(C2=NN(C(=O)c3ccccc3)C(O)(c3cc(F)c(Cl)cc3Cl)C2)cc1OC (configuration not stated) please.
> 100 µM

Quote TGI reported for Cc1cccc2nc3n(c12)C(=O)c1ccccc1-3 please.
> 100 µM

Quote TGI reported for O=C1ON(Cc2ccccc2)C(c2ccccc2)N1c1ccccc1 (configuration not stated) please.
> 100 µM

Quote TGI reported for CSC(=S)N/N=C/c1ccccc1 please.
> 100 µM

---

# Test system: NCI-H522 lung
# Assay Text: NCI tumour cell line growth inhibition, 48 h
Each entry below carries its reported TGI.
// return numeric value only (unit: µM, not printed)

COc1ccc(/C=C/C(=O)c2nc3ccccc3[nH]2)cc1
32.5

--- query ---
Quote TGI reported for CC(=O)OCc1cccc(O)c1C(=O)CCC=C(C)C please.
56.6

---

# Test system: K-562 leukemia
# Assay Text: NCI tumour cell line growth inhibition, 48 h
Readout: TGI

Solved cases below.
CSc1c(CC(=O)O)n(Cc2ccccc2)c2ccccc12
> 100 µM
O=c1cc2n(c(=O)[nH]1)C1OC(C(O)C1O)[C@H]2CCO (some centres not stated)
> 100 µM
CC(=O)OCc1cccc(O)c1C(=O)CCC=C(C)C
> 100 µM
CCOC(=O)C1(Cc2ccccc2)Cc2cc3c(cc2C1=O)CCC3 (configuration not stated)
> 100 µM
CCOc1cc(C=O)c2c(ccc3ccc(OC)c(OC)c32)c1OC
> 100 µM

Quote TGI reported for CN(C)C1(C(=O)O)CC1 please.
> 100 µM

Quote TGI reported for c1ccc(-c2nc3sccn3n2)cc1 please.
> 100 µM

Quote TGI reported for CCCCCCNC(=O)c1cc(C#Cc2cc(OC)ccc2OC)ccc1OC please.
> 100 µM

Quote TGI reported for Cc1cc2cc(Cl)ccc2nc1C(=O)c1ccccc1 please.
> 100 µM

Quote TGI reported for COC(=O)C1=C(C(=O)OC)SC(=C2c3ccsc3-c3sccc32)S1 please.
> 100 µM

Quote TGI reported for CN(C)CCCNC(=O)c1cc(NC(=O)CCNC(=O)c2ccc3c(c2)C(=O)c2ccccc2C3=O)cn1C please.
> 100 µM

Quote TGI reported for COc1ccc(CN2C(=O)C(Cc3cc(OC)c(OC)c(C)c3OC)N(C(=O)OC(C)C)C(=O)/C2=C/c2cc(OC)c(OC)c(C)c2OC)cc1 (configuration not stated) please.
> 100 µM

Quote TGI reported for C=C1C(=O)O[C@H]2[C@H]1CC/C(C=Nc1ccc(C(F)(F)F)cc1N)=C\CC[C@@]1(C)O[C@@H]21 please.
16.5 µM

Quote TGI reported for CC(=O)Nc1ccc(C2=N/C(=C\c3ccc(Cl)c(Cl)c3)C(=O)O2)cc1 please.
> 100 µM

Quote TGI reported for CC(C)(C)c1ccc(-c2nc3ccccc3c(=O)o2)cc1 please.
> 100 µM

Quote TGI reported for C=CC1(c2ccc3ccccc3c2)OCC(CC)(CC)CO1 please.
48.1 µM

Quote TGI reported for CN(C)c1ccc(/C=C(\C#N)c2cc3ccccc3n2C)cc1 please.
> 100 µM

Quote TGI reported for CC(C)c1ccc2c(N=Nc3ccc(S(N)(=O)=O)cc3)c(O)[nH]c2c1 please.
> 25 µM

Quote TGI reported for CCCCOP(=O)(OCCCC)/C(C#N)=C/c1ccc(C)o1 please.
71.3 µM

Quote TGI reported for Cc1ccc(-c2c(C#N)c(-c3ccc([N+](=O)[O-])cc3)c(C#N)c(=O)n2NS(=O)(=O)c2ccc(C)cc2)cc1 please.
> 100 µM

Quote TGI reported for CSC(=S)N/N=C/c1ccccc1 please.
> 100 µM

Quote TGI reported for Brc1ccccc1/C=C\C1(c2ccccc2)OCCO1 please.
> 100 µM

Quote TGI reported for O=C(Nc1ccc(Cl)c(Cl)c1)C(=O)Nn1c(=S)[nH]c2ccccc2c1=O please.
> 100 µM

Quote TGI reported for CC1(C)CC(=O)C(CC(C(=O)C(=O)Nc2cc(C(F)(F)F)ccc2Cl)C(=O)c2ccco2)C(=O)C1 (configuration not stated) please.
> 100 µM

Quote TGI reported for Cc1ccc(Cl)cc1Nc1nc(C(F)(F)F)ccc1C(=O)N/N=C/c1c(Cl)cccc1Cl please.
> 32.1 µM

Quote TGI reported for COc1ccc(S(=O)(=O)N2CCN(C(=O)OCc3ccccc3)CC2C(=O)NO)cc1 (configuration not stated) please.
> 25 µM

Quote TGI reported for COc1ccc(C(=O)C(c2ccc(OC)cc2)C2C(=O)Oc3ccccc32)cc1 (configuration not stated) please.
> 100 µM

---

# Tested on: U251 CNS
Write down one outcome, taken from active, inactive

Reference set (5 entries):
NC(=O)c1nnn(Cc2cc(Cl)c(C(=O)c3ccc(Cl)cc3)c(Cl)c2)c1N
inactive
CCCCCCCCCCCCOC1C(CNC(=O)C2OC3OC(C)(C)OC3C2NC(=O)CN2CCN(c3ccccn3)CC2)OC2OC(C)(C)OC21 (stereo not drawn)
inactive
CC1(C)Cc2cccc(OCC(O)CN3CCN(c4ccc(F)cc4)CC3)c2O1 (stereo not drawn)
inactive
COc1cc(C(=O)NC2CCN(C)CC2)ccc1Nc1ncc2c(n1)N(C1CCCC1)CC(F)(F)C(=O)N2C
active
COc1ccc(-c2cn(-c3ccc(Cl)cc3)c(=S)[nH]2)cc1OC
inactive

State the result this test recorded for C=CCCC(O)c1ccc(C(O)CCCCCCCCCCCC)o1 (stereo not drawn) .
inactive

State the result this test recorded for COc1ccc2nc3cccc([N+](=O)[O-])c3c(NCCN(CCO)CCO)c2c1 .
active

State the result this test recorded for O=C1Nc2ccccc2C1(c1ccc(O)c(F)c1)c1ccc(O)c(F)c1 .
inactive

State the result this test recorded for COc1ccc(/C=C2\N=C(c3ccccc3)N(c3cc(C(F)(F)F)ccc3Cl)C2=O)cc1OC .
inactive

State the result this test recorded for COc1ccccc1CNCCCN1C(=O)c2ccc3c4c(ccc(c24)C1=O)C(=O)N(CCCNCCCCNCCCCN)C3=O .
inactive

State the result this test recorded for O=C(N/N=C/c1coc2ccc(Cl)cc2c1=O)c1ccncc1 .
inactive

State the result this test recorded for CCCCCCCCCCCC1=NC(C)(C)CN1CCO .
inactive

State the result this test recorded for C=C1C(=O)O[C@H]2[C@H]1CC/C(COC(=O)/C=C\C(=O)NCc1ccc(Cn3c(=O)sn(-c4ccc(OC)cc4)c3=O)cc1)=C\CC[C@@]1(C)O[C@@H]21 .
inactive
